target: T. brucei N-myristoyl transferase (Trypanosoma brucei brucei (strain 927/4 GUTat10.1), UniProt Q388H8); test: biochemical; assay type: biochemical; settings: value printed without enzyme tag in the NMT Enzyme column (taken as T. brucei NMT); read-out: IC50 (μM) NMT Enzyme
Sequence (Q388H8 1-446): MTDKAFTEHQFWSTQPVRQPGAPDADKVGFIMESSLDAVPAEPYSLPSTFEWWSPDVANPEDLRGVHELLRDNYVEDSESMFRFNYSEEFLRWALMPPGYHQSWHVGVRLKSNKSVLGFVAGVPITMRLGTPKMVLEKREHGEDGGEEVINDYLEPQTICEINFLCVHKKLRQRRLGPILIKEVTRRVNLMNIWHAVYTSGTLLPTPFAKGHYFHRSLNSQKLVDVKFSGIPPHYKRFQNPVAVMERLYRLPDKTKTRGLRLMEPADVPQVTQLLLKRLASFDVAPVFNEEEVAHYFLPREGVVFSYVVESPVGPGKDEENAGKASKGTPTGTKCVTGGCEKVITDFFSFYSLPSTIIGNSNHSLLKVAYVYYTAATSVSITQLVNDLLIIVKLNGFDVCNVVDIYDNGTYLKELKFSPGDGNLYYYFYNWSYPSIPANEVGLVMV
property.measured: IC50 (µM)

compound=Cc1nn(C)c(C)c1N[S+](=O)([O-])c1ccc(CNc2ccc(Oc3ccccc3)cc2)cc1 property_measured=IC50 val=4.8

(A) Cc1nn(C)c(C)c1N[S+](=O)([O-])c1ccc(Cl)c(C(F)(F)F)c1
(B) CCC(C)c1ccc([S+](=O)([O-])Nc2c(C)nn(C)c2C)cc1 (centres unmarked)
INPUT: Param metric = IC50; output whichever of A , B has the minimum value. When you have decided, please share the label of that item.
OUTPUT: B

(P) COc1ccccc1CNc1ccc([S+](=O)([O-])Nc2c(C)nn(C)c2C)cn1
(Q) Cc1nn(C)c(C)c1N[S+](=O)([O-])c1c(Cl)cc(-c2cccc(C(N)=O)c2)cc1Cl
INPUT: When P and Q are compared, which has the higher number for IC50? When you have decided, please share the label of that item.
OUTPUT: P

(I) Cc1nn(C)c(C)c1N[S+](=O)([O-])c1ccc(NCCCc2ccccc2)nc1
(II) Cc1nn(C)c(C)c1N[S+](=O)([O-])c1ccc(Cl)c(Cl)c1
INPUT: Param metric = IC50; output whichever of I , II has the minimum value. When you have decided, please share the label of that item.
OUTPUT: I
(I: 2.8 µM, II: 9.9 µM)

---

biological target: T. brucei N-myristoyl transferase (Trypanosoma brucei brucei (strain 927/4 GUTat10.1), UniProt Q388H8); test: biochemical; assay type: biochemical; settings: value with no enzyme tag in the cell; taken as T. brucei NMT; read-out: IC50 (μM) NMT Enzyme
property.measured: IC50 (µM)

(I) Cc1nn(C)c(C)c1N(C)[S+](=O)([O-])c1ccc(CCCN2CCN(C)CC2)cc1
(II) Cc1c(N[S+](=O)([O-])c2ccc(-c3cccc(CN4CCN(C)CC4)c3)cc2)c(CC(C)C)nn1C
INPUT: When I and II are compared, which has the higher number for IC50? When you have decided, please share the label of that item.
OUTPUT: I
(I: 0.26 µM, II: 0.068 µM)

---

List of IC50 values.
molecular target: A. fumigatus N-myristoyl transferase (Aspergillus fumigatus (strain ATCC MYA-4609 / CBS 101355 / FGSC A1100 / Af293) (Neosartorya fumigata)); experiment: biochemical; format: biochemical; conditions: AfNMT; read-out: IC50 (μM) NMT Enzyme (AfNMT)
Respond with the bare value in µM.

// below: answered molecules
molecule="COc1cc2c(cc1OC)CN(c1ccc([S+](=O)([O-])Nc3c(C)nn(C)c3C)cn1)CC2 [DDD73476]" property_measured=IC50 val=4.8
molecule="Cc1nn(C)c(C)c1N(C)[S+](=O)([O-])c1c(Cl)cc(Br)cc1Cl [DDD73490]" property_measured=IC50 val=3.9

Continue with the molecule presented below.
INPUT: # query: IC50 of entry Cc1nn(C)c(C)c1NS(=O)(=O)c1ccc(N2CCc3cccc(N)c3C2)nc1 [DDD73498]
OUTPUT: 14.7

---

experiment: CNS penetration: drug concentration in blood and brain after i.v. dosing; format: in vivo; conditions: brain / whole blood, iv; female NMRI mouse, single i.v. dose 1.0 mg/kg, t = 5 min
property.measured: Kp at 5 min
// return just the number, without any unit appended

INPUT: # query: Kp at 5 min of entry CCN(CC)Cc1cccc(-c2ccc([S+](=O)([O-])N(C)c3c(C)nn(C)c3C)cc2)c1
OUTPUT: 0.8

---

system: HT29; experiment: In-vitro antiproliferative assay, HT29; format: cell-based, human; conditions: Homo sapiens, HT-29, 72 h, read-out: IC50 HT29
property.measured: pIC50
Please note pIC50 is a logarithmic value: minus log10 of concentration in mol/L. Answer with that number alone.

INPUT: For the record Cc1nn(C)c(C)c1N[S+](=O)([O-])c1c(Cl)cc(-c2ccnc(N3CCNCC3)c2)cc1Cl [DDD85646] , what value of pIC50 is listed for HT29?
OUTPUT: 6.95

---

target: T. brucei N-myristoyl transferase (Trypanosoma brucei brucei (strain 927/4 GUTat10.1)); experiment: biochemical; assay type: biochemical; settings: value printed without enzyme tag in the NMT Enzyme column (taken as T. brucei NMT); read-out: IC50 (μM) NMT Enzyme
property.measured: IC50 (µM)

// below: answered molecules
structure_notation=CC(=O)N1CCc2cc([S+](=O)([O-])Nc3c(C)nn(C)c3C)ccc21 property_measured=IC50 val=8.8
structure_notation=Cc1ncccc1N[S+](=O)([O-])c1ccc(NCc2ccc3[nH]ccc3c2)nc1 property_measured=IC50 val=7.2

(a) Cc1nn(C)c(C)c1N[S+](=O)([O-])c1ccc(N2CCN(C)CC2)nc1
(b) COc1cc(NCc2ccc([S+](=O)([O-])Nc3c(C)nn(C)c3C)cc2)cc(OC)c1OC
INPUT: When a and b are compared, which has the higher number for IC50? When you have decided, please share the label of that item.
OUTPUT: b

---

biological target: T. brucei N-myristoyl transferase (Trypanosoma brucei brucei (strain 927/4 GUTat10.1)); experiment: biochemical; format: biochemical; conditions: value with no enzyme tag in the cell; taken as T. brucei NMT; read-out: IC50 (μM) NMT Enzyme
property.measured: IC50 (µM)

structure_notation=Cc1c(N[S+](=O)([O-])c2c(Cl)cc(Br)cc2Cl)cnn1C property_measured=IC50 val=20

(A) Cc1nn(C)c(C)c1N[S+](=O)([O-])c1ccc(Br)cc1F
(B) Cc1nn(C)c(C)c1N[S+](=O)([O-])c1ccc(NCCO)nc1
(C) CCN(CC)Cc1cccc(-c2ccc([S+](=O)([O-])Nc3c(CC(C)C)nn(C)c3C)c(Cl)c2)c1
(D) Cc1c(N(C)[S+](=O)([O-])c2ccc(CCCN3CCN(C)CC3)cc2)c(CC(C)C)nn1C
INPUT: Arrange the 4 molecules from largest to smallest IC50. Lab note: final answer is the ordered label list.
OUTPUT: A, B, D, C

---

molecular target: T. brucei N-myristoyl transferase (Trypanosoma brucei brucei (strain 927/4 GUTat10.1)); assay: biochemical; type: biochemical; settings: value printed without enzyme tag in the NMT Enzyme column (taken as T. brucei NMT); read-out: IC50 (μM) NMT Enzyme
property.measured: IC50 (µM)

// below: answered compounds
compound=Cc1nn(C)c(C)c1N[S+](=O)([O-])c1ccc(N2CCC(c3ccccc3)CC2)nc1 target_or_test_system="T. brucei N-myristoyl transferase (Trypanosoma brucei brucei (strain 927/4 GUTat10.1))" property_measured=IC50 val=6.9
compound=Cc1nn(C)c(C)c1N[S+](=O)([O-])c1ccc(Nc2ccccc2)nc1 target_or_test_system="T. brucei N-myristoyl transferase (Trypanosoma brucei brucei (strain 927/4 GUTat10.1))" property_measured=IC50 val=4.5
compound=Cc1nn(C)c(C)c1N[S+](=O)([O-])c1ccc(CN2C(=O)CSC2=O)cc1 target_or_test_system="T. brucei N-myristoyl transferase (Trypanosoma brucei brucei (strain 927/4 GUTat10.1))" property_measured=IC50 val=5.8
compound=Cc1nn(C)c(C)c1N[S+](=O)([O-])c1ccc(NCc2ccc(N3CCOCC3)cc2)nc1 target_or_test_system="T. brucei N-myristoyl transferase (Trypanosoma brucei brucei (strain 927/4 GUTat10.1))" property_measured=IC50 val=0.88
compound=Cc1nn(C)c(C)c1N[S+](=O)([O-])c1ccc(CSCc2ccccc2)cc1 target_or_test_system="T. brucei N-myristoyl transferase (Trypanosoma brucei brucei (strain 927/4 GUTat10.1))" property_measured=IC50 val=2.4

(a) CC(=O)c1ccc([S+](=O)([O-])Nc2c(C)nn(C)c2C)cc1
(b) Cc1nn(C)c(C)c1N(CCc1ccccc1)[S+](=O)([O-])c1c(Cl)cc(Br)cc1Cl
(c) Cc1nn(C)c(C)c1N[S+](=O)([O-])c1ccc(CNc2noc(C)c2C)cc1
(d) CCCN(c1c(C)nn(C)c1C)[S+](=O)([O-])c1c(Cl)cc(Br)cc1Cl
(e) COc1cc2c(cc1OC)CN(c1ccc([S+](=O)([O-])Nc3c(C)nn(C)c3C)cn1)CC2
INPUT: Arrange the 5 compounds from largest to smallest IC50. Lab note: final answer is the ordered label list.
OUTPUT: a, c, b, d, e
(a: 42 µM, c: 26.9 µM, b: 4.9 µM, d: 3.2 µM, e: 0.32 µM)

(I) COc1cc(C)c([S+](=O)([O-])N2CCCc3ncccc32)c(C)c1C
(II) CCCn1nc(C)c(N[S+](=O)([O-])c2c(C)cc(OC)c(C)c2C)c1C
(III) Cc1nn(C)c(C)c1N[S+](=O)([O-])c1ccc(N2Cc3ccccc3C2)nc1
INPUT: Write the entries in order, lowest recorded IC50 first. Lab note: final answer is the ordered label list.
OUTPUT: III, II, I
(III: 18.2 µM, II: 28.4 µM, I: 51 µM)
